Test system: MARIMO;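 further: after 48 h exposure read by CellTiter-Glo luminescence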
testName: cell viability relative to vehicle control; higher = less cytotoxic
conditionContext: 10 µM; SRSF2 genotype: SRSF2 wt/wt
Where a name gives a salt, the structure may show the parent alone.
# reported cell viability; entries follow

[
  {
    "molecule": "C[C@@]1(CO)C[C@@H](O)C[C@@]2(C)[C@@H]3CC[C@](C)([C@@H](O)CO)C=C3CC[C@H]12",
    "cell viability (%)": 96.2
  },
  {
    "molecule": "COC(=O)C1=C(C)NC(C)=C(C(=O)OCCN2CCN(C(c3ccccc3)c3ccccc3)CC2)C1c1cccc([N+](=O)[O-])c1 (configuration not stated) [Manidipine dihydrochloride (CV-4093)]",
    "cell viability (%)": 68.6
  },
  {
    "molecule": "CCCCCCCCCCCCCCCCCCCCCC(=O)O",
    "cell viability (%)": 112
  },
  {
    "molecule": "O=C(O)CCNc1cc(N2CCc3ccccc3CC2)nc(-c2ccccn2)n1",
    "cell viability (%)": 107
  },
  {
    "molecule": "CC[C@@H]1C(=O)N(C)c2cnc(Nc3ccc(C(=O)NC4CCN(C)CC4)cc3OC)nc2N1C1CCCC1",
    "cell viability (%)": 5.37
  },
  {
    "molecule": "CCCCc1oc2ccc(NS(C)(=O)=O)cc2c1C(=O)c1ccc(OCCCN(CCCC)CCCC)cc1 [Dronedarone HCl (Multaq)]",
    "cell viability (%)": 0.71
  },
  {
    "molecule": "CC(C)N(CCC(=O)c1ccc2ccccc2c1)Cc1ccccc1",
    "cell viability (%)": 0.67
  },
  {
    "molecule": "O=c1c(-c2ccc(O)cc2)coc2cc(O)ccc12",
    "cell viability (%)": 96.9
  },
  {
    "molecule": "O=c1cc(-c2ccc(O)cc2)oc2cc(O)c([C@@H]3O[C@H](CO)[C@@H](O)[C@H](O)[C@H]3O)c(O)c12",
    "cell viability (%)": 93.6
  },
  {
    "molecule": "COc1cc2ncnc(Nc3ccc(F)c(Cl)c3)c2cc1O",
    "cell viability (%)": 101
  },
  {
    "molecule": "CC1(C)CCCC2(C)C1CCC1(C)OCCC12 (single isomer, unassigned; (-)) [(-)-Ambroxide]",
    "cell viability (%)": 101
  },
  {
    "molecule": "CN(C)c1ccc(C(=C2C=CC(=[N+](C)C)C=C2)c2ccc(N(C)C)cc2)cc1",
    "cell viability (%)": 1.04
  },
  {
    "molecule": "CCOC(=O)O[C@]1(C(=O)OCCl)CC[C@H]2[C@@H]3CCC4=CC(=O)C=C[C@]4(C)[C@H]3[C@@H](O)C[C@@]21C [Loteprednol etabonate]",
    "cell viability (%)": 98.5
  },
  {
    "molecule": "COc1cc2c(cc1OC)[C@H]1C[C@@H](OC(=O)[C@@H](N)C(C)C)[C@H](CC(C)C)CN1CC2 [Valbenazine tosylate]",
    "cell viability (%)": 93.9
  },
  {
    "molecule": "O=C(NCCO[N+](=O)[O-])c1cccnc1",
    "cell viability (%)": 108
  },
  {
    "molecule": "CN(C)c1ccc(-c2nc3ncc(Cl)c(N4CCN(CC(=O)Nc5nccs5)CC4)c3[nH]2)cc1",
    "cell viability (%)": 109
  },
  {
    "molecule": "COCCOc1nc(-c2ccc(Cl)c(Cl)c2)n(-c2ccc(NC(=O)CCl)cc2)n1",
    "cell viability (%)": 0.7
  },
  {
    "molecule": "O=c1oc2cc(O)ccc2c2ccc(O)cc12",
    "cell viability (%)": 98.3
  },
  {
    "molecule": "CCOC(=O)c1ccc(N)cc1",
    "cell viability (%)": 91.7
  },
  {
    "molecule": "CCCCNC(=O)NS(=O)(=O)c1ccc(C)cc1 [Tolbutamide]",
    "cell viability (%)": 116
  },
  {
    "molecule": "c1ccc(CNc2nc(NCc3ccccc3)c3ccccc3n2)cc1",
    "cell viability (%)": 11
  },
  {
    "molecule": "CO/N=C(\\C(=O)N[C@@H]1C(=O)N2C(C(=O)[O-])=C(C[n+]3ccn4ncccc43)CS[C@H]12)c1nsc(N)n1 [Cefozopran hydrochloride]",
    "cell viability (%)": 114
  },
  {
    "molecule": "Cc1ccnc2c1NC(=O)c1cccnc1N2C1CC1",
    "cell viability (%)": 99.3
  },
  {
    "molecule": "O=S(=O)(N=Cc1c(O)ccc2ccccc12)c1cccs1",
    "cell viability (%)": 97.3
  },
  {
    "molecule": "COC(=O)c1cc(OC)c(O)c(OC)c1 [Methyl syringate]",
    "cell viability (%)": 102
  },
  {
    "molecule": "Cc1ccc(C(=O)Nc2ccc(Oc3cc4cnn(C)c4cc3-c3cn[nH]c3)c(F)c2)c(=O)n1-c1ccc(F)cc1",
    "cell viability (%)": 103
  },
  {
    "molecule": "CNC(=O)c1c(F)cccc1Nc1nc(Nc2cc3c(cc2OC)CCN3C(=O)CN(C)C)nc2[nH]ccc12",
    "cell viability (%)": 38.8
  },
  {
    "molecule": "CC(C)=CCC[C@](C)(O)[C@H]1CC[C@]2(C)[C@@H]1[C@H](O)C[C@@H]1[C@@]3(C)CC[C@H](O[C@@H]4O[C@H](CO)[C@@H](O)[C@H](O)[C@H]4O[C@@H]4O[C@H](CO)[C@@H](O)[C@H](O)[C@H]4O)C(C)(C)[C@@H]3CC[C@]12C [20S-Ginsenoside Rg3]",
    "cell viability (%)": 108
  },
  {
    "molecule": "C[C@]12CCC(=O)C=C1CC[C@@H]1[C@@H]2[C@@H](O)C[C@@]2(C)[C@H]1CC[C@]2(O)C(=O)CO [Hydrocortisone (Cortisol)]",
    "cell viability (%)": 99
  },
  {
    "molecule": "OCc1c[nH]c2ccccc12",
    "cell viability (%)": 113
  },
  {
    "molecule": "NC(=O)c1ccc(N(C(N)=O)c2c(F)cccc2F)nc1-c1ccc(F)cc1F",
    "cell viability (%)": 97.5
  },
  {
    "molecule": "O=C(c1ccc(Nc2nccc(-c3cc4ccccc4s3)n2)cc1)N1CCC(N2CCCC2)CC1",
    "cell viability (%)": 0.54
  }
]

Origin of measurements: the supplement of paper PMC10981050
